test system: MS2 coat protein; test: apparent KD of MS2 coat protein; designed switch direction (-1 OFF switch, 1 ON switch): -1; higher = weaker reporter binding; settings: input ligand: FMN 200 uM
Parameter measured: apparent KD of MS2 coat protein (nM)
Number in nM, nothing else.

[[record]]
seq_text = "GUAAUUAAUGUAGGAUAUGCAAGGCGAACCUAAGCAGAAGGAACAUGAGGAUCACCCAUGUAUGCGGUCUGCGUACAGAUCGCU [salish99_ExNG1_r4_004] (Eterna round: R96, puzzle: Exclusion NG 1)"
output_unit = "nM"
recorded_number = 15.1

[[record]]
seq_text = "UUUUAGUCAGGAUAUACAUGAGGAUCACCCAUGUAAAAUUUUAAUUUAAUUUGAAGGUGUAGAAGGGACAUUUU [Ex3 #40] (Eterna round: R97, puzzle: Exclusion 3)"
output_unit = "nM"
recorded_number = 25.9


// switching to the query sequence
Lookup: Can you look up the measured apparent KD of MS2 coat protein of GGCAUGUGAGGAUAUGUACCUGAGUGCUUUGCGCUCAGGAAACAGAAGGCACAUGAGGAUCACCCAUGUGAUAA [jl-ex4-4.49 ViennaUCT mod] (Eterna round: R97, puzzle: Exclusion 4) for me?
Found: 67.7

Attribution: the supplement of paper PMC9170038
